The reported measurements were obtained from patent US12102648B2.

Assay Name: in vitro
Format: in vitro ADME
Measurement Parameters: human, Caco-2

[
  {
    "Compound": "CC(C)[C@H](N)C(=O)Nc1ncnn2c([C@]3(C#N)O[C@H](COC(=O)CC4CCCCC4)[C@@H](O)[C@H]3O)ccc12 [Compound 112]",
    "efflux ratio at 90 min": 44
  },
  {
    "Compound": "CC(C)C(=O)O[C@H]1[C@@H](O)[C@](C#N)(c2ccc3c(N)ncnn23)O[C@@H]1COC(=O)[C@@H](N)C(C)C [Compound 38]",
    "efflux ratio at 90 min": 15
  },
  {
    "Compound": "CC(C)C(=O)OC[C@H]1O[C@@](C#N)(c2ccc3c(N)ncnn23)[C@H](O)[C@@H]1OCOC(=O)C(C)(C)C [Compound 64]",
    "efflux ratio at 90 min": 1.2
  },
  {
    "Compound": "CC(=O)O[C@H]1[C@@H](OC(C)=O)[C@](C#N)(c2ccc3c(N)ncnn23)O[C@@H]1COC(=O)C(C)(C)C1CCCCC1 [Compound 412]",
    "efflux ratio at 90 min": 0.2
  },
  {
    "Compound": "N#C[C@@]1(c2ccc3c(NC(=O)[C@@H](N)Cc4ccc(F)cc4)ncnn23)O[C@H](COC(=O)CC2(N)CCCCC2)[C@@H](O)[C@H]1O [Compound 352]",
    "efflux ratio at 90 min": 5.7
  },
  {
    "Compound": "N#C[C@@]1(c2ccc3c(N)ncnn23)O[C@H](COC(=O)CC2(c3ccccc3)CCOCC2)[C@@H](O)[C@H]1O [Compound 274]",
    "efflux ratio at 90 min": 14
  }
]
